Molecular target: human DGKα (Homo sapiens)
Construct: TVMV protease cleavage site (C); Hexa-His (C); made in house; host or cells: Sf9 insect cells (baculovirus, Bac-to-Bac)
Sequence (P23743 with tags, fused parts or gaps): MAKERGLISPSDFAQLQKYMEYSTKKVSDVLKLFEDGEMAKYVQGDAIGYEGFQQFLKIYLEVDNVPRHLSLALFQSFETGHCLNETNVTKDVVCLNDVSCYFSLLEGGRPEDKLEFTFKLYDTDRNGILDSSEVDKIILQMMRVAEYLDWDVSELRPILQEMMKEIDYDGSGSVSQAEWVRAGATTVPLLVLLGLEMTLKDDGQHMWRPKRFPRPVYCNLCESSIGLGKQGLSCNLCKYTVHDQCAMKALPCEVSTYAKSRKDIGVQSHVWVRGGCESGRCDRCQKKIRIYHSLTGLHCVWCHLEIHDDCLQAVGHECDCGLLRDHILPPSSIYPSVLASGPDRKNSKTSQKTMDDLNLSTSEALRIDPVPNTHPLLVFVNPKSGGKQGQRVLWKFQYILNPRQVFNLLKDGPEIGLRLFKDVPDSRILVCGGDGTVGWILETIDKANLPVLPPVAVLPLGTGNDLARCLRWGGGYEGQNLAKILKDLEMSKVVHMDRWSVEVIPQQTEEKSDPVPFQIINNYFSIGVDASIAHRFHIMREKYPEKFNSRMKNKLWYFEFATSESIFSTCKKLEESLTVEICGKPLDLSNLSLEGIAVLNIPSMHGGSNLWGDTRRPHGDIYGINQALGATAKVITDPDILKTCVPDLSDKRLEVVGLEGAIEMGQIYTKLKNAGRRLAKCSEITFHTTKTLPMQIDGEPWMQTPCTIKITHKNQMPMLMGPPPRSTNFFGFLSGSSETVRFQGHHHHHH
Assay: DGKα LIPGLO assay (extruded liposome substrate), in vitro DGK inhibition
Format: biochemical
Conditions: liposome (LIPGLO) assay; read-out: DGKa LIPGLO IC50
Simple rule here: IC50 less than 1000 nM is class 1, otherwise class 0.

Recorded results for 5 compounds are shown here.
C[C@@H]1CN(c2cc(=O)n(C)c3ccc(C#N)nc23)[C@@H](C)CN1C(c1ccc(Cl)cc1)c1cccc(F)n1 (single isomer, unassigned) [Example 196] : class 0
Cc1nc2c(C(C)N3C[C@H](C)N(c4cc(=O)n(C)c5ccc(C#N)nc45)C[C@H]3C)cccc2o1 (single isomer, unassigned) [Example 1261] : class 0
CC[C@@H]1CN(c2cc(=O)n(C)c3ccc(C#N)nc23)[C@@H](C)CN1Cc1ccc(OC(F)(F)F)c(F)c1 : class 1
CC(c1ccc(F)c(C#N)c1)N1C[C@H](C)N(c2cc(=O)n(C)c3ccc(C#N)nc23)C[C@H]1C (stereo partly drawn) : class 0
CC[C@H]1CN(Cc2ccc3c(c2)OC(F)(F)O3)[C@H](COC)CN1c1cc(=O)n(C)c2ccc(C#N)nc12 : class 0

Inquiry: Please indicate whether the reported IC50 of CC(c1ccc(OC(F)F)cc1)N1C[C@H](C)N(c2c(C#N)c(=O)n(C)c3ccc(C#N)nc23)C[C@H]1C (single isomer, unassigned) [Example 1376] is strictly below 1000 nM.
Reply text: class 1
